- EXPERIMENT: AUC (0 to infinity) in ICR mouse at 2 mg/kg, iv by LC-MS/MS analysis
- Type: ADME, organism-based
- Parameters: dose 2 mg/kg, time infinity, route intravenous
- MEASUREMENT SETUP: in vivo
RECORDED METRIC: AUC(0-inf) (ng·h/mL)

>>> quantitative_readout("CCN1CCN(c2cc(Nc3ncc(-c4ccncc4)s3)nc(C)n2)CC1.Cl")
542

* * *

- EXPERIMENT: Cytotoxicity against mouse BAF3 assessed as cell growth inhibition after 72 hrs by CellTiter 96 AQueous One Solution Cell Proliferation assay
- MEASUREMENT SETUP: BaF3 cells
RECORDED METRIC: GI50 at 72 h (nM)

>>> quantitative_readout("CCN1CCN(c2cc(Nc3ncc(-c4ccncc4)s3)nc(C)n2)CC1.Cl")
1100

* * *

- EXPERIMENT: AUC (0 to infinity) in ICR mouse at 10 mg/kg, po via gavage by LC-MS/MS analysis
- Type: ADME, organism-based
- Parameters: dose 10 mg/kg, time infinity, route oral
- MEASUREMENT SETUP: in vivo
RECORDED METRIC: AUC(0-inf) (ng·h/mL)

>>> quantitative_readout("CCN1CCN(c2cc(Nc3ncc(-c4ccncc4)s3)nc(C)n2)CC1.Cl")
1960

* * *

Recorded GI50, one value per entry.
- Tested on: GISTT1
- EXPERIMENT: Antiproliferative activity against human GISTT1 cells harboring heterozygous deletion mutation at C-kit exon 11 assessed as cell growth inhibition after 72 hrs by CellTiter 96 AQueous One Solution Cell Proliferation assay
- Assay type: functional
- MEASUREMENT SETUP: GISTT1, 72 h
RECORDED METRIC: GI50 (nM)

>>> quantitative_readout("CCN1CCN(c2cc(Nc3ncc(-c4ccccc4)s3)nc(C)n2)CC1")
8
>>> quantitative_readout("CCN1CCN(c2cc(Nc3ncc(-c4ccncc4)s3)ncn2)CC1")
15
>>> quantitative_readout("CCN1CCN(c2cc(Nc3ncc(-c4ccncc4)s3)nc(C)n2)CC1.Cl")
7.1

* * *

- System: GISTT1
- EXPERIMENT: Antiproliferative activity against human GISTT1 cells harboring heterozygous deletion mutation at C-kit exon 11 assessed as cell growth inhibition after 72 hrs by CellTiter 96 AQueous One Solution Cell Proliferation assay
- Type: functional
- MEASUREMENT SETUP: GISTT1, 72 h
RECORDED METRIC: GI50 (µM)

>>> quantitative_readout("CN1CCN(Cc2ccc(C(=O)Nc3ncc(-c4cccnc4)s3)cc2)CC1")
0.647
>>> quantitative_readout("CCN1CCN(c2cc(Nc3ncc(-c4ccccn4)s3)nc(C)n2)CC1")
0.042
>>> quantitative_readout("CCN1CCN(c2cc(Nc3ncc(-c4cccnc4)s3)ncn2)CC1")
0.08
>>> quantitative_readout("Cc1nc(Nc2ncc(-c3ccncc3)s2)cc(N2CCC(N(C)C)CC2)n1")
0.0015
>>> quantitative_readout("CCN1CCN(c2cc(Nc3ncc(-c4ccnc(C)c4)s3)nc(C)n2)CC1")
0.0077

* * *

- EXPERIMENT: Half life in Sprague-Dawley rat at 2 mg/kg, iv by LC-MS/MS analysis
- Format: ADME, organism-based
- MEASUREMENT SETUP: in vivo
RECORDED METRIC: half-life (h)

>>> quantitative_readout("CCN1CCN(c2cc(Nc3ncc(-c4ccncc4)s3)nc(C)n2)CC1.Cl")
5.7

* * *

- ASSAYED SYSTEM: High affinity nerve growth factor receptor (Homo sapiens, UniProt P04629)
- Sequence (P04629 whole entry): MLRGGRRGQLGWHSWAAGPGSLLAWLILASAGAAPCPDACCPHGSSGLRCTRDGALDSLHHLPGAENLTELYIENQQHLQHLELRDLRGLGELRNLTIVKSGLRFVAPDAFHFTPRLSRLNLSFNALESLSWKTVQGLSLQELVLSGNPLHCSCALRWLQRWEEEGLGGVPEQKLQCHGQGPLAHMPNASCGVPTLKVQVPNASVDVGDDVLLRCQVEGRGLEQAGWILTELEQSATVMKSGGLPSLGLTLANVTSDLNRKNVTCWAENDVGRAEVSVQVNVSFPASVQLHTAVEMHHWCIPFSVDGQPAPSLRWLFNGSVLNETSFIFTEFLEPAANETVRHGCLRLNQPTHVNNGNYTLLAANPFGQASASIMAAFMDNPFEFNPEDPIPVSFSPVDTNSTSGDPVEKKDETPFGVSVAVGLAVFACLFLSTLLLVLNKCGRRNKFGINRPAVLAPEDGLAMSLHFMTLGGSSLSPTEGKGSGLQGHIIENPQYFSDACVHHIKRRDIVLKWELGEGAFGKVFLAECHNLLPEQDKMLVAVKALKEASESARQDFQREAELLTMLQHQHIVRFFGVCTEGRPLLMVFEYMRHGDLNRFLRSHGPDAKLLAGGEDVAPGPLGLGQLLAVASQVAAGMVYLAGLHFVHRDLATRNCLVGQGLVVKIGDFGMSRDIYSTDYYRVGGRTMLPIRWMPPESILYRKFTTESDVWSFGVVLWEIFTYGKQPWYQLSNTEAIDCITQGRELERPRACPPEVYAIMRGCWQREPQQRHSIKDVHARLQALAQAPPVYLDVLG
RECORDED METRIC: IC50 (nM)

>>> quantitative_readout("CCN1CCN(c2cc(Nc3ncc(-c4ccncc4)s3)nc(C)n2)CC1.Cl")
4.9

* * *

- EXPERIMENT: Toxicity in orally dosed athymic nude mouse assessed as maximum tolerated dose
- Type: organism-based
- MEASUREMENT SETUP: in vivo, po
RECORDED METRIC: MTD (mg/kg)

>>> quantitative_readout("CCc1cc(NC(=O)Nc2ccc(-c3cnc(Nc4cc(N5CCN(CC)CC5)nc(C)n4)s3)cc2)no1")
25

* * *

- EXPERIMENT: Clearance in ICR mouse at 2 mg/kg, iv by LC-MS/MS analysis
- Type: ADME, organism-based
- MEASUREMENT SETUP: in vivo
RECORDED METRIC: clearance (mL/min/kg)

>>> quantitative_readout("CCN1CCN(c2cc(Nc3ncc(-c4ccncc4)s3)nc(C)n2)CC1.Cl")
70.7

* * *

- EXPERIMENT: Half life in ICR mouse at 2 mg/kg, iv by LC-MS/MS analysis
- Format: ADME, organism-based
- MEASUREMENT SETUP: in vivo
RECORDED METRIC: half-life (h)

>>> quantitative_readout("CCN1CCN(c2cc(Nc3ncc(-c4ccncc4)s3)nc(C)n2)CC1.Cl")
1.6

* * *

- EXPERIMENT: Cytotoxicity against human Detroit 551 assessed as cell growth inhibition
- Assay type: cell-based
- MEASUREMENT SETUP: Detroit 551 cells
RECORDED METRIC: GI50

>>> result("CCN1CCN(c2cc(Nc3ncc(-c4ccncc4)s3)nc(C)n2)CC1.Cl")
"> 20 µM"

* * *

- System: GISTT1
- EXPERIMENT: Antiproliferative activity against human GISTT1 cells harboring heterozygous deletion mutation at C-kit exon 11 assessed as cell growth inhibition after 72 hrs by CellTiter 96 AQueous One Solution Cell Proliferation assay
- Type: functional
- MEASUREMENT SETUP: GISTT1, 72 h
Simple rule here: GI50 less than 0.03 µM is 1, otherwise 0.

>>> group_label("Cc1nc(Nc2ncc(-c3ccncc3)s2)cc(N2CCN(CCF)CC2)n1")
1
>>> group_label("CCN1CCN(c2cc(Nc3ncc(-c4cccnc4)s3)nc(C)n2)CC1")
1
>>> group_label("Cc1nc(Nc2ncc(-c3ccncc3)s2)cc(N2CCN(CCO)CC2)n1")
1
>>> group_label("CCN(CC)CCNC(=O)c1c(C)[nH]c(/C=C2\\C(=O)Nc3ccc(F)cc32)c1C [SUNITINIB]")
0
>>> group_label("CCN1CCN(c2cc(Nc3ncc(-c4cncnc4)s3)nc(C)n2)CC1")
0
>>> group_label("Cc1ccc(NC(=O)c2ccc(CN3CCN(C)CC3)cc2)cc1Nc1nccc(-c2cccnc2)n1 [IMATINIB]")
0
>>> group_label("CCc1cc(NC(=O)Nc2ccc(-c3cnc(Nc4cc(N5CCN(CC)CC5)nc(C)n4)s3)cc2)no1")
1
>>> group_label("Cc1nc(Nc2ncc(-c3ccncc3)s2)cc(OCCN2CCOCC2)n1")
1
>>> group_label("CNC(=O)c1cc(Oc2ccc(NC(=O)Nc3ccc(Cl)c(C(F)(F)F)c3)c(F)c2)ccn1 [REGORAFENIB]")
0

* * *

- EXPERIMENT: Oral bioavailability in Sprague-Dawley rat at 10 mg/kg by LC-MS/MS analysis
- Assay type: ADME, organism-based
- MEASUREMENT SETUP: in vivo
RECORDED METRIC: bioavailability (%)

>>> quantitative_readout("CCN1CCN(c2cc(Nc3ncc(-c4ccncc4)s3)nc(C)n2)CC1.Cl")
36

* * *

- EXPERIMENT: Oral bioavailability in ICR mouse at 10 mg/kg by LC-MS/MS analysis
- Assay type: ADME, organism-based
- MEASUREMENT SETUP: in vivo
RECORDED METRIC: bioavailability (%)

>>> quantitative_readout("CCN1CCN(c2cc(Nc3ncc(-c4ccncc4)s3)nc(C)n2)CC1.Cl")
68

* * *

- EXPERIMENT: Half life in ICR mouse at 10 mg/kg, po via gavage by LC-MS/MS analysis
- Format: ADME, organism-based
- MEASUREMENT SETUP: in vivo
RECORDED METRIC: half-life (h)

>>> quantitative_readout("CCN1CCN(c2cc(Nc3ncc(-c4ccncc4)s3)nc(C)n2)CC1.Cl")
4.1

* * *

- EXPERIMENT: Half life in Sprague-Dawley rat at 10 mg/kg, po via gavage by LC-MS/MS analysis
- Assay type: ADME, organism-based
- MEASUREMENT SETUP: in vivo
RECORDED METRIC: half-life (h)

>>> quantitative_readout("CCN1CCN(c2cc(Nc3ncc(-c4ccncc4)s3)nc(C)n2)CC1.Cl")
3.9

* * *

- EXPERIMENT: Cmax in Sprague-Dawley rat at 10 mg/kg, po via gavage by LC-MS/MS analysis
- Type: ADME, organism-based
- Parameters: dose 10 mg/kg, route oral
- MEASUREMENT SETUP: in vivo
RECORDED METRIC: Cmax (ng/mL)

>>> quantitative_readout("CCN1CCN(c2cc(Nc3ncc(-c4ccncc4)s3)nc(C)n2)CC1.Cl")
153

These data points were gathered from ChEMBL document CHEMBL4376836.
